Where these numbers come from: ChEMBL document CHEMBL1124636

# System Name: Cysteinyl leukotriene receptor (Cavia porcellus)
# Assay Name: Inhibitory activity to block binding of [3H]leukotriene D4 to LTD4 receptor sites in homogenized guinea pig lung
Binarize IC50 at 5 µM; below is True, at or above is False.

>>> df
                                   compound  label
0  CCCc1c(OCCCCCOc2cc3c(cc2C(C)=O)CCC(CCC(=O)O)O3)ccc(C(C)=O)c1O (centres undefined)   True
1  CCCc1c(OCCCOc2cc(NC(=O)c3nn[nH]n3)c(C)cc2Cl)ccc(C(C)=O)c1O   True
2  CCCc1c(OCCCCCOc2cc3c(cc2C(C)=O)CCC2(CCC(C(=O)O)CC2)O3)ccc(C(C)=O)c1O (centres undefined)   True
3  COc1cc(C(=O)NS(=O)(=O)c2ccccc2)ccc1Cn1ncc2ccc(NC(=O)OC3CCCC3)cc21   True
4  CCCc1c(OCCC(C)(C)CCOc2cc3c(cc2C(C)=O)CCC(C(=O)O)O3)ccc(C(C)=O)c1O (centres undefined)  False

Input line: API: query returns whether the compound falls strictly under 5 µM in IC50. Query: CCCc1c(OCCCCCOc2cc3c(cc2C(C)=O)CCC(C)(C(=O)O)O3)ccc(C(C)=O)c1O (centres undefined)
Output line: False

Input line: API: query returns whether the compound falls strictly under 5 µM in IC50. Query: CCCc1c(OCCCCCOc2cc3c(cc2C(C)=O)CCC(C(=O)NS(=O)(=O)c2ccccc2)O3)ccc(C(C)=O)c1O (centres undefined)
Output line: True
